src = ChEMBL document CHEMBL4316613

- MEASUREMENT TARGET: Neutrophil collagenase (Homo sapiens, UniProt P22894)
- Sequence (P22894 whole entry): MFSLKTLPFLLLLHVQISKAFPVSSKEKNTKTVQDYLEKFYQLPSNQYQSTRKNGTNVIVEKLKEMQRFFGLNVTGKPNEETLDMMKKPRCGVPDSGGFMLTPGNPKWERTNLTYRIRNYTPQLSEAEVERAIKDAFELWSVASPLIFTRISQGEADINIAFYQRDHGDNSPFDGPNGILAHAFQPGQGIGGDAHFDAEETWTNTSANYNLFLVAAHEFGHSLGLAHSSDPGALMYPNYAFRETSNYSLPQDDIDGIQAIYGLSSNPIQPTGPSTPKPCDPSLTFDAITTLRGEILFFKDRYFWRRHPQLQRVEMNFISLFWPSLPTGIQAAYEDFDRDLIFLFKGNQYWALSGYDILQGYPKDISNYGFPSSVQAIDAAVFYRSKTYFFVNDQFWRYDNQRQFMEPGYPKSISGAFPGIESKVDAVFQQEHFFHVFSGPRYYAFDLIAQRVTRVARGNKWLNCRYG
- TEST METHOD NOTES: Inhibition of human MMP8 by photoaffinity probe based assay
PROPERTY MEASURED: Ki (nM)
# unit: nM | format: bare number

Query :: # return recorded Ki for input [3H]CC([3H])C(=O)NCCCOCCOCCOCCCNC(=O)[C@H](CO)NC(=O)[C@H](CC)NC(=O)[C@H](Cc1cc(-c2ccc(C3(C(F)(F)F)N=N3)cc2)no1)CP(=O)(O)c1ccccc1 (stereo partly specified)
Result :: 0.6

----------
Target protein (sequence): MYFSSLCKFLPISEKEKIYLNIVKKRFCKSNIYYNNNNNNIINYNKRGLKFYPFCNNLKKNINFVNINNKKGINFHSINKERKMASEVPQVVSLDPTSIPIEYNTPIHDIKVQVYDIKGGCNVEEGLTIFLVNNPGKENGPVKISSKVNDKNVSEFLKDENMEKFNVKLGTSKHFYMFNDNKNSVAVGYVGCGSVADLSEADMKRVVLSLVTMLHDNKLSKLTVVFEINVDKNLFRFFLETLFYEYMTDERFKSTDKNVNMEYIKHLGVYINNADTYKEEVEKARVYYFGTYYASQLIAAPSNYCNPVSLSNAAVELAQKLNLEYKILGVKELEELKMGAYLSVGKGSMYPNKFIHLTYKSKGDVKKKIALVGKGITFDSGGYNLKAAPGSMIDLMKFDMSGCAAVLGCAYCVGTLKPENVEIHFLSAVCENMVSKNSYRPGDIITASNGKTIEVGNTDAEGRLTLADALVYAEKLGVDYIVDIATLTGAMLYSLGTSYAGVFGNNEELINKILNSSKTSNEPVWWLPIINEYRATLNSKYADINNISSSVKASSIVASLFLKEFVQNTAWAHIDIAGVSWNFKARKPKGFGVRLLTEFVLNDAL
PROPERTY MEASURED: Ki (nM)
# unit: nM | format: bare number

Query :: # return recorded Ki for input NC(CCc1ccccc1)P(=O)(O)CC(Cc1ccccc1)C(=O)O (stereo unspecified)
Result :: 13

----------
- MEASUREMENT TARGET: Macrophage metalloelastase (Homo sapiens, UniProt P39900)
- Sequence (P39900 whole entry): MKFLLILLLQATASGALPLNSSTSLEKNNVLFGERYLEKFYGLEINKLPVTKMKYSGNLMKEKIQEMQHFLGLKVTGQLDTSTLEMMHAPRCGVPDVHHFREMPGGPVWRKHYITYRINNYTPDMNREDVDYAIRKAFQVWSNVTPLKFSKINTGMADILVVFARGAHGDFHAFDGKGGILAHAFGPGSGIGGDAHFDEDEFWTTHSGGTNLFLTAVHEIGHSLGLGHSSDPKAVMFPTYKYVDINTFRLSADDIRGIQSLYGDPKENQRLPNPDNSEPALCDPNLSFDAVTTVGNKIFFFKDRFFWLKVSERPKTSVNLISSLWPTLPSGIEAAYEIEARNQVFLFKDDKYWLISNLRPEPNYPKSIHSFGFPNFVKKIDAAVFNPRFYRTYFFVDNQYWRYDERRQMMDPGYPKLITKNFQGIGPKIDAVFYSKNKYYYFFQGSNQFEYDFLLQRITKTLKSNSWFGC
- TEST METHOD NOTES: Inhibition of human MMP12 by photoaffinity probe based assay
PROPERTY MEASURED: Ki (nM)
# unit: nM | format: bare number

Query :: # return recorded Ki for input [3H]CC([3H])C(=O)NCCCOCCOCCOCCCNC(=O)[C@H](CO)NC(=O)[C@H](CC)NC(=O)[C@H](Cc1cc(-c2ccc(C3(C(F)(F)F)N=N3)cc2)no1)CP(=O)(O)c1ccccc1 (stereo partly specified)
Result :: 1

----------
- MEASUREMENT TARGET: Matrix metalloproteinase-9 (Homo sapiens, UniProt P14780)
- Sequence (P14780 whole entry): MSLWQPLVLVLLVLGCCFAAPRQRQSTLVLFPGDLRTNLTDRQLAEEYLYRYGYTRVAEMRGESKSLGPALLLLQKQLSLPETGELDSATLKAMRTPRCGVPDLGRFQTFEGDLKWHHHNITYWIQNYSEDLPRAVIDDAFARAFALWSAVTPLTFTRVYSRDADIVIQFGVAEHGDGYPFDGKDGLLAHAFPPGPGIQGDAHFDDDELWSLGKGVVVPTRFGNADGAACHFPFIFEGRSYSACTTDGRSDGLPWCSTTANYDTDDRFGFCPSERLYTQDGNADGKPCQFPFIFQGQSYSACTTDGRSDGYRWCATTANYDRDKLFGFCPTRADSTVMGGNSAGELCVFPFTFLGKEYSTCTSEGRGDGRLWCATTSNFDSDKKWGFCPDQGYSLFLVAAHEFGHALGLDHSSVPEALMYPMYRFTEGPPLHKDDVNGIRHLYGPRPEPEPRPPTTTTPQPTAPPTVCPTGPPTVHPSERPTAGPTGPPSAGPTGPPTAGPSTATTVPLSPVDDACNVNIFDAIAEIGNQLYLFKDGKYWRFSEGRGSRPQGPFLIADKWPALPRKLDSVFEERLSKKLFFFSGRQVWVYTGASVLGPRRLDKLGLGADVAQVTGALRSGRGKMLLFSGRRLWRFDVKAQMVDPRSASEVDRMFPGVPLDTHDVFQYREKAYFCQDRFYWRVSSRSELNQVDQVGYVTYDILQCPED
PROPERTY MEASURED: Ki

Query :: System Matrix metalloproteinase-9 (Homo sapiens, UniProt P14780). Read-out Ki. Item [3H]CC([3H])C(=O)NCCCOCCOCCOCCCNC(=O)[C@H](CO)NC(=O)[C@H](CC)NC(=O)[C@H](Cc1cc(-c2ccc(C3(C(F)(F)F)N=N3)cc2)no1)CP(=O)(O)c1ccccc1 (stereo partly specified) . Report value.
Result :: 2.6 nM

----------
- MEASUREMENT TARGET: Collagenase 3 (Homo sapiens, UniProt P45452)
PROPERTY MEASURED: Ki

Query :: System Collagenase 3 (Homo sapiens, UniProt P45452). Read-out Ki. Item [3H]CC([3H])C(=O)NCCCOCCOCCOCCCNC(=O)[C@H](CO)NC(=O)[C@H](CC)NC(=O)[C@H](Cc1cc(-c2ccc(C3(C(F)(F)F)N=N3)cc2)no1)CP(=O)(O)c1ccccc1 (stereo partly specified) . Report value.
Result :: 1.6 nM
